biological target: Phosphatidylinositol 4,5-bisphosphate 3-kinase catalytic subunit delta isoform (Homo sapiens); assay: Inhibition of human PI3Kdelta preincubated for 15 mins followed by ATP addition measured after 1 hr by TR-FRET assay
Sequence (O00329 whole entry, canonical isoform): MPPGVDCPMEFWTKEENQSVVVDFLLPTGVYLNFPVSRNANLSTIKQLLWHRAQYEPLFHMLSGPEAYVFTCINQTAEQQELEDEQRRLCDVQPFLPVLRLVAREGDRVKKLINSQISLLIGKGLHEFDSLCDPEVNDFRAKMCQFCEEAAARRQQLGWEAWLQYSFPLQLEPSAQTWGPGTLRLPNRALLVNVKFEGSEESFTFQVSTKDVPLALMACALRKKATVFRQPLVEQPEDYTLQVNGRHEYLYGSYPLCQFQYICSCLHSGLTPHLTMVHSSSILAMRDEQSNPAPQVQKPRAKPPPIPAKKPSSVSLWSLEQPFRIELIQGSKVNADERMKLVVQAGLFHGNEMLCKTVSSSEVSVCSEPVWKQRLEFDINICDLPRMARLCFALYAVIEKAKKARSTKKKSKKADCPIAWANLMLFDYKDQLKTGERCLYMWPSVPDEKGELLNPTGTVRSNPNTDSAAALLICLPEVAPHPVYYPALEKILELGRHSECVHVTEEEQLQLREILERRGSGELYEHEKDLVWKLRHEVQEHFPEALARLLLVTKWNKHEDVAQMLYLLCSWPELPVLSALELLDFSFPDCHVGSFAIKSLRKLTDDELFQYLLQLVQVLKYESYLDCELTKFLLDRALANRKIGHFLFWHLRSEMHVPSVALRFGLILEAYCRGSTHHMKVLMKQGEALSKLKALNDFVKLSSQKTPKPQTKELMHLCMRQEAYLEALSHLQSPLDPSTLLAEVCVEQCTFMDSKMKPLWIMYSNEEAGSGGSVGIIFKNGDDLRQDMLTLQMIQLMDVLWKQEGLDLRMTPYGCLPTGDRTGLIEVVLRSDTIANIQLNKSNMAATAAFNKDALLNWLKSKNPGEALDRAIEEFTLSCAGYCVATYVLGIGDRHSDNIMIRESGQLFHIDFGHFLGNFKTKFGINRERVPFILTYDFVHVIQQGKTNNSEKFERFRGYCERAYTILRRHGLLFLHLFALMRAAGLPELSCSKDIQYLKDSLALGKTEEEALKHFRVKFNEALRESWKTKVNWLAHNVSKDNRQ
IC50 for assorted compounds
Metric Name: IC50 (nM)

[
  {
    "Smi": "CC(=O)N1CCC(n2nc(-c3cc4cc(O)cc(Cl)c4[nH]3)c3c(N)ncnc32)CC1",
    "Obs Value": 10
  },
  {
    "Smi": "Nc1ncnc2c1c(-c1cc3cc(O)ccc3[nH]1)nn2C1CCOCC1",
    "Obs Value": 50
  },
  {
    "Smi": "Nc1ncnc2c1c(-c1cc3cc(O)cc(Cl)c3[nH]1)nn2C1CCOCC1",
    "Obs Value": 10
  },
  {
    "Smi": "Nc1ncnc2c1c(-c1cc3cccc(O)c3[nH]1)nn2C1CCOCC1",
    "Obs Value": 100
  },
  {
    "Smi": "CC(=O)N1CCC(n2nc(-c3cc4c(Cl)ccc(O)c4[nH]3)c3c(N)ncnc32)CC1",
    "Obs Value": 100
  },
  {
    "Smi": "CC(C)n1nc(-c2cc3cccc(O)c3[nH]2)c2c(N)ncnc21",
    "Obs Value": 100
  },
  {
    "Smi": "COc1cccc2cc(-c3nn(C4CCOCC4)c4ncnc(N)c34)[nH]c12",
    "Obs Value": 10
  },
  {
    "Smi": "CC(C)n1nc(-c2cc3cc(O)cc(F)c3[nH]2)c2c(N)ncnc21",
    "Obs Value": 50
  }
]
